- assayed system: Trypanothione reductase (Trypanosoma cruzi, UniProt P28593)
- Sequence (P28593 whole entry): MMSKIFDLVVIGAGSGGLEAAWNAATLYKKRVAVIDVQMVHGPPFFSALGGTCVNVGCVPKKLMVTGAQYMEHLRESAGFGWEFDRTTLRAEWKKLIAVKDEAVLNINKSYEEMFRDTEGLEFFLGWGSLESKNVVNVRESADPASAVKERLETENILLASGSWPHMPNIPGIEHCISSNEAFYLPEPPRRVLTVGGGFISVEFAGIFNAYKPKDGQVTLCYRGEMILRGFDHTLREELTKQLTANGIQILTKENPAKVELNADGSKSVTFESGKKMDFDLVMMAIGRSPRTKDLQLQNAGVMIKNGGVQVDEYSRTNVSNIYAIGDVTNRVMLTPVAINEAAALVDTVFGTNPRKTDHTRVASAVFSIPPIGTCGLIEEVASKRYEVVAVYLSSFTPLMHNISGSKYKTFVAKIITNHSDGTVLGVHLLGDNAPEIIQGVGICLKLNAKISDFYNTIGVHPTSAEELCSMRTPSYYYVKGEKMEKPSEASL
- procedure summary: Inhibitory activity against Trypanosoma cruzi trypanothione disulfide reductase, assay in presence of 57 uM T(S)2.
Can you tell me IC50 for the items I'm about to list?

Measured IC50, O=C(O)CCC1=C(CCC(=O)O)C(=O)c2c(O)cccc2C1=O : > 50 µM

Measured IC50, CC1=C(CCCCCC(=O)O)C(=O)c2ccccc2C1=O : > 50 µM

Measured IC50, CC1=C(CCCCCC(=O)NCCCN2CCN(CCCNC(=O)CCCCCC3=C(C)C(=O)c4ccccc4C3=O)CC2)C(=O)c2ccccc2C1=O : 3.1 µM

Measured IC50, CC1=C(CCCCCC(=O)O)C(=O)c2c(O)cccc2C1=O : > 50 µM

Measured IC50, CC1=C(CCCCCC(=O)NCCCCNCCCNC(=O)CCCCCC2=C(C)C(=O)c3cccc(O)c3C2=O)C(=O)c2c(O)cccc2C1=O : 1.6 µM

Measured IC50, CN1CCN(CCCNC(=O)CCCC2=C(CCCC(=O)NCCCN3CCN(C)CC3)C(=O)c3c(O)cccc3C2=O)CC1 : 11 µM

Measured IC50, CN1CCN(CCCNC(=O)CCCCC2=C(CCCCC(=O)NCCCN3CCN(C)CC3)C(=O)c3c(O)cccc3C2=O)CC1 : 6.2 µM

Measured IC50, CC1=C(O)c2ccccc2C(=O)/C1=N\CCCN1CCN(C)CC1 : > 57 µM

Measured IC50, CC1=C(CCC(=O)NCCCN2CCN(C)CC2)C(=O)c2ccccc2C1=O : 38 µM

Measured IC50, CC1=C(CCCC(=O)NCCCN2CCN(C)CC2)C(=O)c2c(O)cccc2C1=O : 32 µM

Measured IC50, CN1CCN(CCCNC(=O)CCC2=C(CCC(=O)NCCCN3CCN(C)CC3)C(=O)c3c(O)cccc3C2=O)CC1 : > 50 µM

Measured IC50, CC1=C(CCNC(=O)OC(C)(C)C)C(=O)c2ccccc2C1=O : > 50 µM

Measured IC50, O=C(O)CCCC1=C(CCCC(=O)O)C(=O)c2c(O)cccc2C1=O : > 50 µM

Measured IC50, CC1=C(NCCCNCCCCNCCCN)C(=O)c2ccccc2C1=O : 28 µM

Measured IC50, CN1CCN(CCCNC(=O)CCCCCC2=C(CCCCCC(=O)NCCCN3CCN(C)CC3)C(=O)c3c(O)cccc3C2=O)CC1 : 0.8 µM

Measured IC50, CC1=C(CCCCC(=O)NCCCCNCCCNC(=O)CCCCC2=C(C)C(=O)c3ccccc3C2=O)C(=O)c2ccccc2C1=O : 1.4 µM

Measured IC50, CC1=C(CCC(=O)NCCCN2CCN(C)CC2)C(=O)c2c(O)cccc2C1=O : 16 µM

Measured IC50, CC1=C(NCCCNCCCCNCCCNC2=C(C)C(=O)c3ccccc3C2=O)C(=O)c2ccccc2C1=O : 6.5 µM

Measured IC50, CC1=C(CCCCC(=O)NCCCCNCCCNC(=O)CCCCC2=C(C)C(=O)c3cccc(O)c3C2=O)C(=O)c2c(O)cccc2C1=O : 1.7 µM

Measured IC50, CC1=C(CCC(=O)N2CCN(C)CC2)C(=O)c2ccccc2C1=O : > 50 µM

Measured IC50, CC1=C(CCC(=O)NCCCN2CCN(CCCNC(=O)CCC3=C(C)C(=O)c4ccccc4C3=O)CC2)C(=O)c2ccccc2C1=O : 3.7 µM

Measured IC50, CC1=C(CCC(=O)NCCCCNCCCNC(=O)CCC2=C(C)C(=O)c3cccc(O)c3C2=O)C(=O)c2c(O)cccc2C1=O : 2.9 µM

Measured IC50, CC1=C(CCCNC(=O)OC(C)(C)C)C(=O)c2c(O)cccc2C1=O : > 25 µM

Measured IC50, CC1=C(NCCCNCCCN)C(=O)c2c(O)cccc2C1=O : 57 µM

Measured IC50, CC1=C(CCCC(=O)NCCCCNCCCNC(=O)CCCC2=C(C)C(=O)c3ccccc3C2=O)C(=O)c2ccccc2C1=O : 4 µM
